Data origin: ChEMBL document CHEMBL1159164

biological target: Chymotrypsinogen B (Homo sapiens, UniProt P17538); test: Reversible inhibitory activity toward alpha-chymotrypsin (5 nM concentration) at a pH of 7.8 by progress curve method.
Sequence (P17538 34-164 limits assumed, other chains not shown): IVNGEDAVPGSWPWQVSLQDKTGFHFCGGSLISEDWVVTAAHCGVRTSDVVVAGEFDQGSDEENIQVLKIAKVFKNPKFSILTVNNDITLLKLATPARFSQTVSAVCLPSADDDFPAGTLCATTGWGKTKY
Sequence (P17538 167-263 limits assumed, other chains not shown): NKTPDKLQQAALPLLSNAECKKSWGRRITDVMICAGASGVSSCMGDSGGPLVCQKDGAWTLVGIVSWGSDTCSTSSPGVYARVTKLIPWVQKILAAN
MEASUREMENT NAME: pKi
Conceptually, pKi converts a concentration in mol/L into minus its log10.

COC(=O)C(F)(F)[C@H](Cc1ccccc1)NC(C)=O : 4.47
C=CC(F)(F)[C@H](Cc1ccccc1)NC(C)=O : 3.34
COC(=O)C(F)[C@H](Cc1ccccc1)NC(C)=O (stereo in doubt; syn) : 1.72

Next item in the queue.
Data request: Give pKi (Chymotrypsinogen B (Homo sapiens, UniProt P17538)) of the following compound: COC(=O)C(F)[C@H](Cc1ccccc1)NC(C)=O (stereo in doubt; anti)
Data returned: 2.19
